Tested on: HCT-116
assay summary: NCI tumour cell line growth inhibition, 48 h
Calls of active or inactive are those of the source. Cut-off read from the data, not from the text of the source: active = GI50 up to about 1.1 µM and inactive = higher.
Write down the outcome that applies. Available outcomes: active, inactive

Identify the outcome logged in this assay for the molecule shown: CCN1CCC(O)(/C=C/c2ccc(C)cc2C)C(C(=O)/C=C/c2ccc(C)cc2C)C1 (stereo not given)
inactive

Identify the outcome logged in this assay for the molecule shown: CC(C)(O)C1CC[C@]2(C)CC[C@]3(C)[C@H](CC[C@@H]4[C@@]5(C)CC[C@H](O)C(C)(C)[C@@H]5CC[C@]43C)[C@@H]12 (stereo not given in full)
inactive

Identify the outcome logged in this assay for the molecule shown: O=C1C(Cl)=C(N2CCSCC2)C(=O)c2c(O)ccc(O)c21
active

Identify the outcome logged in this assay for the molecule shown: CC(C)Cc1ccc(C(C)/C=C2\CCC(CN(C)C)C2=O)cc1 (stereo not given)
inactive

Identify the outcome logged in this assay for the molecule shown: COC(=O)c1ccc(NC(=O)c2cc(OC)c(OC)c(OC)c2)cc1
active

---

System: KM12
assay summary: NCI tumour cell line growth inhibition, 48 h
Active and inactive are the calls of the source. Rule as the data show it: active = GI50 up to about 1.1 µM and inactive = higher.
measured quantity: GI50

// compound CCN(CC)c1ccc(/C=C2/C[N+](C)(C)C/C(=C/c3ccc(N(CC)CC)cc3)C2=O)cc1 , assay KM12, GI50 value: 1.23 µM (inactive)

// compound COc1cccc(/C=C2\C(=O)N(C(=O)Cc3ccccc3)N=C2C)c1 , assay KM12, GI50 value: > 100 µM (inactive)

// compound CCOc1cc2c(cc1O)CC[C@@H]1[C@@H]2CC[C@]2(C)C(N)CC[C@@H]12 (stereo not given in full) , assay KM12, GI50 value: 1.58 µM (inactive)

// compound O=c1cc(N2CCOCC2)[nH]c(=O)n1-c1cccc(Cl)c1 , assay KM12, GI50 value: > 100 µM (inactive)

// compound CC(C)=CCC[C@@H](C)C1=C(Nc2ccccc2F)C(=O)C(C)=C(O)C1=O , assay KM12, GI50 value: 4.16 µM (inactive)

---

Tested on: TK-10
assay summary: NCI tumour cell line growth inhibition, 48 h
Active and inactive are the calls of the source. No stated cut-off is given here; in the data, active = GI50 up to about 1.1 µM and inactive = higher.
Write down the outcome that applies. Available outcomes: T = active, F = inactive

Identify the outcome logged in this assay for the compound shown: Oc1cc(O)c2c(c1)O[C@H](c1ccc(O)c(O)c1)[C@@H](O)C2
F

Identify the outcome logged in this assay for the compound shown: O=C1N(C2CCCCC2)CC12CCCCC2
F

Identify the outcome logged in this assay for the compound shown: [N-]=[N+]=Nc1cc(=O)n(-c2ccccc2)c(=O)n1-c1ccccc1
F

Identify the outcome logged in this assay for the compound shown: Cc1cnc2nc(-c3ccc4ccccc4c3)cc(O)c2c1
F

Identify the outcome logged in this assay for the compound shown: CC(C)C(=O)/C=C/c1ccc(Br)cc1
F

Identify the outcome logged in this assay for the compound shown: COc1ccc(C(=O)/C=C/c2cccnc2)cc1OC
F

Identify the outcome logged in this assay for the compound shown: C#CCN1C(=O)CN2C(Cl)(Cl)C2(c2ccccc2)c2cc(Cl)ccc21 (configuration not stated)
F

Identify the outcome logged in this assay for the compound shown: O/N=C\C(=N/O)Nc1ccc(Cc2ccc(NC(/C=N\O)=N/O)cc2)cc1
F

Identify the outcome logged in this assay for the compound shown: CC(C)Cc1ccc(C(C)/C=C2\CCC(CN(C)C)C2=O)cc1 (configuration not stated)
F

Identify the outcome logged in this assay for the compound shown: C(=C\Nc1ccc(Oc2ccccc2)cc1)/C=N/c1ccc(Oc2ccccc2)cc1
F

Identify the outcome logged in this assay for the compound shown: CN1CCN(c2cc3[nH]c(-c4ccc(Cl)cc4)nc3cc2F)CC1
F

Identify the outcome logged in this assay for the compound shown: CCCCCCCCCCCC[C@@H](O)[C@H]1CC[C@H]([C@H](O)CC[C@H](O)[C@@H]2CC[C@@H](CCCCCCCC3=C[C@H](C)OC3=O)O2)O1
F

Identify the outcome logged in this assay for the compound shown: Cc1ccc2nc3ccccc3c(C3C4C(=O)N(c5ccc(F)cc5)C(=O)C4ON3C(C(N)=O)c3ccccc3)c2c1 (configuration not stated)
F

Identify the outcome logged in this assay for the compound shown: OC1c2ccccc2C(O)C2OC12 (configuration not stated)
F

Identify the outcome logged in this assay for the compound shown: O=C1C=Cc2noc3cccc1c23
F

Identify the outcome logged in this assay for the compound shown: COc1cc2c(cc1O)c(O)cc1c3cc(OC)c(OC)cc3c[n+](C)c21
F

Identify the outcome logged in this assay for the compound shown: Fc1ccc(NC(=S)SCc2ccc3c(c2)OCO3)cc1F
F

Identify the outcome logged in this assay for the compound shown: N#Cc1nc(C2CCC(=O)O2)oc1N (configuration not stated)
F

Identify the outcome logged in this assay for the compound shown: CCOc1ccc(NC(=O)C(=O)CC(=O)c2c(C)[n+]([O-])c3ccccc3[n+]2[O-])cc1
F

Identify the outcome logged in this assay for the compound shown: Oc1cc2c3c(c1)CCCN3CCC2
F

Identify the outcome logged in this assay for the compound shown: CC(C)COC(=O)c1ccc(/N=C\c2ccc(/C=N/c3ccc(C(=O)OCC(C)C)cc3)cc2)cc1
F

Identify the outcome logged in this assay for the compound shown: COc1ccc(OC)c2c(Nc3ccc(S(=O)(=O)O)c4cc(S(=O)(=O)O)cc(S(=O)(=O)O)c34)cc(C)nc12
F

Identify the outcome logged in this assay for the compound shown: C=C(NC(=O)C(=C)NC(=O)c1ccc2c(n1)-c1coc(n1)C(=C)NC(=O)C(=C)NC(=O)c1nc(oc1C)C(=C)NC(=O)C(C(C)(C)O)NC(=O)C(=C)NC(=O)c1coc(n1)/C(=C/C)NC(=O)[C@H]([C@@H](C)O)NC(=O)c1csc-2n1)C(N)=O (some centres not stated)
F

Identify the outcome logged in this assay for the compound shown: S=C(S)N1CCN(c2ccccc2)CC1
F

Identify the outcome logged in this assay for the compound shown: Clc1ccc2c(c1)CC1C[N+]3=C(CCCC3)C1=C2 (configuration not stated)
F

Identify the outcome logged in this assay for the compound shown: COC(=O)c1cc2c(s1)C(=O)c1ccccc1-2
F

Identify the outcome logged in this assay for the compound shown: CC[C@]12C=CCN3CCC4(c5cc([C@@]6(C(=O)OC)CC7CN(CCc8c6[nH]c6ccccc86)CC6CCCCC67)c(OC)cc5N(C)C4[C@](O)(C(=O)OC)C1OC(C)=O)[C@@H]32 (some centres not stated)
T

Identify the outcome logged in this assay for the compound shown: C=CC(=O)C#CC#CC/C=C\CCCCCCC
F

Identify the outcome logged in this assay for the compound shown: O=C(CCc1ccccc1)On1nnc2ccccc2c1=O
F

Identify the outcome logged in this assay for the compound shown: O=C1NC(=S)NC(=O)C1C(c1ccccc1[N+](=O)[O-])C1C(=O)NC(=S)NC1=O.c1ccncc1
F

Identify the outcome logged in this assay for the compound shown: Nc1nc(Cl)c(C=O)c(NCC2(CO)CC(CCc3ccccc3)C2)n1 (configuration not stated)
F

Identify the outcome logged in this assay for the compound shown: O=[N+]([O-])c1cccnc1NCC1(CO)CC(Cc2ccccc2)C1 (configuration not stated)
F

Identify the outcome logged in this assay for the compound shown: CC1=NN(c2cccc(Cl)c2)C2(C1)C(Cl)C(=O)N2c1nc2ccccc2s1 (configuration not stated)
F

Identify the outcome logged in this assay for the compound shown: Cc1cc(C)c2c(c1)CC1(Cc3c(ccc(C)c3C)C1=O)C2=O (configuration not stated)
F

Identify the outcome logged in this assay for the compound shown: NCCn1ccc(NC(c2ccccc2)(c2ccccc2)c2ccccc2)nc1=O
F

Identify the outcome logged in this assay for the compound shown: CC(C)(O)C1CC[C@]2(C)CC[C@]3(C)[C@H](CC[C@@H]4[C@@]5(C)CC[C@H](O)C(C)(C)[C@@H]5CC[C@]43C)[C@@H]12 (some centres not stated)
F

Identify the outcome logged in this assay for the compound shown: COC(=O)/C1=C/C=C\C[C@@]2(C)CC(c3ccoc3)OC(=O)[C@@H]2CC[C@H]1C (some centres not stated)
F

Identify the outcome logged in this assay for the compound shown: COc1ccc([C@@]23CCC(=O)C[C@@H]2N(C)CC3)cc1OC
F

Identify the outcome logged in this assay for the compound shown: CNc1ccc2c(c1)[C@@]1(C)c3ccccc3[C@@H](C2)N1C
F

Identify the outcome logged in this assay for the compound shown: CCCOP1(=O)C=C(O)C(Cl)=C(C)C1 (configuration not stated)
F

Identify the outcome logged in this assay for the compound shown: CCOC(=O)c1cn2c(n1)sc1cc([N+](=O)[O-])ccc12
F

Identify the outcome logged in this assay for the compound shown: COc1cc(/C=C(\NC(=O)c2ccccc2)c2nc3cncnc3[nH]2)cc(OC)c1OC
F

---

Each entry below carries its measured GI50, system: HCT-15.
Numeric answer only, unit µM assumed.

// molecule N#C/N=[N+](\[O-])c1ccc(C(=O)O)cc1 , assay HCT-15, GI50 value: 16.2

// molecule O=c1[nH]nc(-c2ccccc2)n1/N=C/c1ccccc1Cl , assay HCT-15, GI50 value: 31.6
